# credit: patent US7462634B2

target: human 11βHSD1 (Homo sapiens, UniProt P28845)
Sequence (P28845 whole entry): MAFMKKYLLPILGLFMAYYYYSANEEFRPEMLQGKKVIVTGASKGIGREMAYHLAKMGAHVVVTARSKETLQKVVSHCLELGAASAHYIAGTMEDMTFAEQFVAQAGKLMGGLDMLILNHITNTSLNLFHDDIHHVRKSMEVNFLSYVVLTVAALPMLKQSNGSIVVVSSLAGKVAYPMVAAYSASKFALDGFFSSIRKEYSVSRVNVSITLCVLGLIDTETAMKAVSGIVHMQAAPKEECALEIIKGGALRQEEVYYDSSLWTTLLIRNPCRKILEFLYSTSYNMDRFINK
pKi: −log10 of the molar value.
reported.property: pKi

P: CCCCOc1ccc(S(=O)(=O)Nc2cccc(N)n2)cc1
Q: CC(O)c1cccc(NS(=O)(=O)c2ccc(-c3ccc(C#N)cc3)cc2)n1 (single isomer, unassigned; (+)) [2(+)]
In: Compare the recorded pKi of P and Q ; state which is larger. Bench note: the answer is the label of the chosen record.
Out: P

* * *

target: human 11βHSD1 (Homo sapiens, UniProt P28845); experiment: 11βHSD1 enzymatic assay, percentage of inhibition; type: biochemical; details: inhibitor at 0.1 uM
reported.property: inhibition at 0.1 µM (%)

N#Cc1ccc(-c2ccc(S(=O)(=O)Nc3cccc(CO)n3)cc2)cc1 [Example 9]: 100
Cc1cc(-c2ccc(C#N)cc2)ccc1S(=O)(=O)Nc1cccc(C(C)O)n1 (single isomer, unassigned; (-)) [4(−)]: 84
Cc1cc(S(=O)(=O)Nc2cccc(N)n2)c(F)cc1Cl [Example 5]: 93
Cc1cc(N)nc(NS(=O)(=O)c2cc(C)c(Cl)cc2F)c1 [Example 6]: 98
Cc1cc(N)nc(NS(=O)(=O)c2sc(-c3ccc(C#N)cc3)nc2C)c1 [Example 1]: 100
Cc1cc(-c2ccc(C#N)cc2)ccc1S(=O)(=O)Nc1cccc(C(C)O)n1 (single isomer, unassigned; (+)) [4(+)]: 100
CCNc1cccc(NS(=O)(=O)c2ccc(-c3ccc(C#N)cc3)cc2)n1 [Example 8]: 88
CCCCOc1ccc(S(=O)(=O)Nc2cccc(N)n2)cc1 [Example 7]: 100

* * *

target: human 11βHSD1 (Homo sapiens, UniProt P28845); experiment: HEK293-11βHSD1/GRE-Luciferase cell-based assay; design: expressed in transfected cells; conditions: HEK293 cells over-expressing human 11βHSD1, GRE-luciferase readout, cortisone substrate, 6 h; read-out: HEK EC50
reported.property: EC50 (nM)

CCC(O)c1cccc(NS(=O)(=O)c2ccc(-c3ccc(C#N)cc3)cc2)n1 (single isomer, unassigned; (+)) [3(+)]: 50.7

I: N#Cc1ccc(-c2ccc(S(=O)(=O)Nc3cccc(CO)n3)cc2)cc1 [Example 9]
II: Cc1cc(-c2ccc(C#N)cc2)ccc1S(=O)(=O)Nc1cccc(C(C)O)n1 (single isomer, unassigned; (+)) [4(+)]
III: N#Cc1ccc(-c2ccc(S(=O)(=O)Nc3cccc(CCO)n3)cc2)cc1 [Comparative Example A, reference compound]
IV: CC(O)c1cccc(NS(=O)(=O)c2ccc(-c3ccc(C#N)cc3)cc2)n1 (single isomer, unassigned; (+)) [2(+)]
In: Please list these in order of increasing EC50. Thank you! Respond with the label ranking, as requested.
Out: II, I, IV, III
(II: 23.1 nM, I: 59 nM, IV: 160 nM, III: 423 nM)

* * *

biological target: human 11βHSD1 (Homo sapiens); test: Human Fa2N-4 immortalized cell-based assay (cortisol accumulation); settings: Fa2N-4 human hepatocyte-derived cells, cortisol EIA, 5 μM cortisone, overnight
Readings of pEC50 for the listed compounds
// field semantics: pEC50 = negative decimal log of concentration (mol/L)

Some entries whose results are on file:
CC(O)c1cccc(NS(=O)(=O)c2ccc(-c3ccc(C#N)cc3)cc2)n1 (single isomer, unassigned; (+)) [2(+)]: 7.25
N#Cc1ccc(-c2ccc(S(=O)(=O)Nc3cccc(CCO)n3)cc2)cc1 [Comparative Example A, reference compound]: 7.11
Cc1cc(-c2ccc(C#N)cc2)ccc1S(=O)(=O)Nc1cccc(C(C)O)n1 (single isomer, unassigned; (+)) [4(+)]: 8.10
CCC(O)c1cccc(NS(=O)(=O)c2ccc(-c3ccc(C#N)cc3)cc2)n1 (single isomer, unassigned; (+)) [3(+)]: 7.94

Next up:
In: Report pEC50, nothing else, for this compound: `N#Cc1ccc(-c2ccc(S(=O)(=O)Nc3cccc(CO)n3)cc2)cc1`
Out: 7.66
